Reference for the values: paper PMC11562961

- SUBJECT OF TEST: 1-deoxy-D-xylulose 5-phosphate synthase (DXPS) (Escherichia coli)
- Sequence (P77488 2-620): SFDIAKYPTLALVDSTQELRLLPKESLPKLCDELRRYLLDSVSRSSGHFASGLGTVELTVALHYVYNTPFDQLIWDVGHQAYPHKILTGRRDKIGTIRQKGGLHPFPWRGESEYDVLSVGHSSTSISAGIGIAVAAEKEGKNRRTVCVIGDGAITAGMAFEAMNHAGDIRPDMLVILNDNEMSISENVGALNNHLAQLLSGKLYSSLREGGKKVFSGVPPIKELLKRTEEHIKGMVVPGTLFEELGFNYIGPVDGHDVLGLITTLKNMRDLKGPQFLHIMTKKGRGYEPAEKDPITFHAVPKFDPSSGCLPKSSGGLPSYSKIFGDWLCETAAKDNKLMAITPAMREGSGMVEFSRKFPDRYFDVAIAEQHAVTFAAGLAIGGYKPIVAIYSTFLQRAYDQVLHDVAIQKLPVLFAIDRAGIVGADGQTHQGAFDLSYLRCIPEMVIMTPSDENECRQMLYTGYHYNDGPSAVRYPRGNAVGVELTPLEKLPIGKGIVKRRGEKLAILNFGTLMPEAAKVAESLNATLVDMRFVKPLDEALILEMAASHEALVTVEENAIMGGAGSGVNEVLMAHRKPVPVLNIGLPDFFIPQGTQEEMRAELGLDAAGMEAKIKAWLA
MEASUREMENT NAME: pKi
pKi here is simply -log10 of the concentration when that concentration is written in mol/L.

Identify the measured pKi of C#CCCC1(CCOP(=O)(O)C(C)=O)N=N1 for 1-deoxy-D-xylulose 5-phosphate synthase (DXPS) (Escherichia coli).
5.80
